target: human mGluR2 receptor (Homo sapiens, UniProt Q14416); construct: expressed in transfected cells; host or cells: CHO cells; experiment: [35S]GTPγS binding assay (PAM assay); format: biochemical; settings: maximal % effect relative to the control glutamate response; in presence of glutamate at EC20; read-out: GTPγS-hmGluR2 PAM Emax
Sequence (Q14416 19-872): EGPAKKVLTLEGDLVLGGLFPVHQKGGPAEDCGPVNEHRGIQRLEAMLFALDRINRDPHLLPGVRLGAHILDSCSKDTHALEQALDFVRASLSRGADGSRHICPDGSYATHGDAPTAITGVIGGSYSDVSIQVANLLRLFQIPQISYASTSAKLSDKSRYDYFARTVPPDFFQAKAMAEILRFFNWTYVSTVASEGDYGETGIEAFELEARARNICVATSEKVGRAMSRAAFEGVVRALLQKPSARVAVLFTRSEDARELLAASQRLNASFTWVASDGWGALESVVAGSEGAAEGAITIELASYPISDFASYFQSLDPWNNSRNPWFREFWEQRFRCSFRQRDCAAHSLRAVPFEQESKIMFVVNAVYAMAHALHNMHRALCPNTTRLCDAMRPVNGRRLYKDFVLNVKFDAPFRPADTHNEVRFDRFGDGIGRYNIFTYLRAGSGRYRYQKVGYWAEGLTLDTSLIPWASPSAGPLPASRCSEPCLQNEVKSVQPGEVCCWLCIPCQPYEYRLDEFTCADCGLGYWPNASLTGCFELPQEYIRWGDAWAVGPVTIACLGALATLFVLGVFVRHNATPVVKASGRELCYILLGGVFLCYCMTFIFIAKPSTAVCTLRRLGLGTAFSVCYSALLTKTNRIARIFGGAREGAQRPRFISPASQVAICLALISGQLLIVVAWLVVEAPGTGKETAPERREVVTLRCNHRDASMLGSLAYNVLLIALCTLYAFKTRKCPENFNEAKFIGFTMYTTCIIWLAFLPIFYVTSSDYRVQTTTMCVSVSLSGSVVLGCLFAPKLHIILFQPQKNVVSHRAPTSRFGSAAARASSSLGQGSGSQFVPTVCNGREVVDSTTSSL
metric-name: Emax (%)

>  <molecule>
CCc1nnc2c(C(F)(F)F)c(CN[C@H]3CC[C@@H](c4ccccc4)CC3)ccn12 [Co. no. 8]

>  <Emax / %>
228

$$$$
>  <molecule>
FC(F)(F)c1c(CN[C@H]2CC[C@H](c3ccccc3)CC2)ccn2c(CC3CC3)nnc12 [Co. no. 3]

>  <Emax / %>
235

$$$$
>  <molecule>
FC(F)(F)c1c(CNC2CC2c2ccccc2)ccn2c(CC3CC3)nnc12 (stereo not shown) [Co. no. 27]

>  <Emax / %>
267

$$$$
>  <molecule>
FC(F)(F)c1c(CN[C@H]2CC[C@@H](c3ccccc3)CC2)ccn2c(CC3CC3)nnc12 [Co. no. 7]

>  <Emax / %>
263

$$$$

###

biological target: human mGluR2 receptor (Homo sapiens, UniProt Q14416); construct: expressed in transfected cells; host or cells: CHO cells; test: [35S]GTPγS binding assay (PAM assay); assay type: biochemical; details: membranes of CHO cells transfected with human mGluR2; in presence of glutamate at EC20; -log EC50 in M; read-out: GTPγS-hmGluR2 PAM pEC50 (converted)
metric-name: EC50 (nM)

Answered examples (3):
>  <molecule>
FC(F)(F)c1c(CNC2Cc3ccccc3C2)ccn2c(CC3CC3)nnc12 [Co. no. 6]

>  <unit-string>
nM

>  <EC50>
794

$$$$
>  <molecule>
Clc1c(CN[C@H]2CC[C@@H](c3ccccc3)CC2)ccn2c(CC3CC3)nnc12 [Co. no. 12]

>  <unit-string>
nM

>  <EC50>
589

$$$$
>  <molecule>
CCc1nnc2c(C(F)(F)F)c(CN[C@H]3CC[C@@H](c4ccccc4)CC3)ccn12 [Co. no. 8]

>  <unit-string>
nM

>  <EC50>
324

$$$$

[I] FC(F)(F)c1c(CN[C@H]2CC[C@@H](c3ccccc3)CC2)ccn2c(CC3CC3)nnc12 [Co. no. 7]
[II] FC(F)(F)c1c(CNC2CCOc3ccccc32)ccn2c(CC3CC3)nnc12 (single isomer, unassigned) [Co. no. 28a]
Which record shows the lower EC50: the first, I , or the second, II ? Your answer should be the label attached to the chosen record.
I
(I: 42.7 nM, II: 794 nM)

[A] CCOCc1nnc2c(C(F)(F)F)c(CN[C@H]3CC[C@@H](c4ccccc4)CC3)ccn12 [Co. no. 10]
[B] FC(F)(F)c1c(CN[C@@H]2CCO[C@@H](c3ccccc3)C2)ccn2c(CC3CC3)nnc12 [Co. no. 30]
[C] Fc1ccc(N2CCC(NCc3ccn4c(CC5CC5)nnc4c3C(F)(F)F)CC2)c(F)c1 [Co. no. 2]
Order the entries by their reported EC50, beginning at the minimum. Show the ranking through the labels, in the order asked for.
A, C, B

###

target: human mGluR2 receptor (Homo sapiens); construct: expressed in transfected cells; host or cells: CHO cells; experiment: [35S]GTPγS binding assay (PAM assay); assay type: biochemical; settings: maximal % effect relative to the control glutamate response; in presence of glutamate at EC20; read-out: GTPγS-hmGluR2 PAM Emax
metric-name: Emax (%)

>  <molecule>
FC(F)(F)c1c(CN[C@H]2CCO[C@H](c3ccccc3)C2)ccn2c(CC3CC3)nnc12 [Co. no. 29]

>  <Emax [%]>
209

$$$$
>  <molecule>
CCc1nnc2c(C(F)(F)F)c(CN[C@H]3CC[C@@H](c4ccc(F)cc4F)CC3)ccn12 [Co. no. 9]

>  <Emax [%]>
209

$$$$
>  <molecule>
Clc1c(CN[C@H]2CC[C@@H](c3ccccc3)CC2)ccn2c(CC3CC3)nnc12 [Co. no. 12]

>  <Emax [%]>
257

$$$$
>  <molecule>
Clc1c(CN[C@H]2CC[C@H](c3ccccc3)CC2)ccn2c(CC3CC3)nnc12 [Co. no. 13]

>  <Emax [%]>
243

$$$$

###

target: human mGluR2 receptor (Homo sapiens, UniProt Q14416); construct: expressed in transfected cells; host or cells: CHO cells; assay: [35S]GTPγS binding assay (PAM assay); format: biochemical; conditions: maximal % effect relative to the control glutamate response; in presence of glutamate at EC20; read-out: GTPγS-hmGluR2 PAM Emax
metric-name: Emax (%)

>  <compound>
CCc1nnc2c(C(F)(F)F)c(CN[C@H]3CC[C@H](c4ccccc4)CC3)ccn12

>  <tgt>
human mGluR2 receptor (Homo sapiens, UniProt Q14416)

>  <Emax, %>
197

$$$$
>  <compound>
FC(F)(F)c1c(CNC2Cc3ccccc3C2)ccn2c(CC3CC3)nnc12

>  <tgt>
human mGluR2 receptor (Homo sapiens, UniProt Q14416)

>  <Emax, %>
227

$$$$
>  <compound>
CCOCc1nnc2c(C(F)(F)F)c(CN[C@H]3CC[C@@H](c4ccccc4)CC3)ccn12

>  <tgt>
human mGluR2 receptor (Homo sapiens, UniProt Q14416)

>  <Emax, %>
242

$$$$
>  <compound>
Fc1ccc(N2CCC(NCc3ccn4c(CC5CC5)nnc4c3C(F)(F)F)CC2)c(F)c1

>  <tgt>
human mGluR2 receptor (Homo sapiens, UniProt Q14416)

>  <Emax, %>
321

$$$$
>  <compound>
FC(F)(F)c1c(CN[C@@H]2CCO[C@@H](c3ccccc3)C2)ccn2c(CC3CC3)nnc12

>  <tgt>
human mGluR2 receptor (Homo sapiens, UniProt Q14416)

>  <Emax, %>
239

$$$$
>  <compound>
FC(F)(F)c1c(CNC2COCC2c2ccccc2)ccn2c(CC3CC3)nnc12 (stereo not shown)

>  <tgt>
human mGluR2 receptor (Homo sapiens, UniProt Q14416)

>  <Emax, %>
201

$$$$
>  <compound>
CCOCc1nnc2c(C(F)(F)F)c(CN[C@H]3CC[C@H](c4ccccc4)CC3)ccn12

>  <tgt>
human mGluR2 receptor (Homo sapiens, UniProt Q14416)

>  <Emax, %>
278

$$$$

###

molecular target: human mGluR2 receptor (Homo sapiens); construct: expressed in transfected cells; host or cells: CHO cells; test: [35S]GTPγS binding assay (PAM assay); type: biochemical; details: membranes of CHO cells transfected with human mGluR2; in presence of glutamate at EC20; -log EC50 in M; read-out: GTPγS-hmGluR2 PAM pEC50 (converted)
metric-name: EC50 (nM)

Answered examples (2):
>  <molecule>
CCc1nnc2c(C(F)(F)F)c(CN[C@H]3CC[C@H](c4ccccc4)CC3)ccn12 [Co. no. 4]

>  <metric-name>
EC50

>  <assay-value>
1200

$$$$
>  <molecule>
FC(F)(F)c1c(CN[C@H]2CC[C@H](c3ccccc3)CC2)ccn2c(CC3CC3)nnc12 [Co. no. 3]

>  <metric-name>
EC50

>  <assay-value>
234

$$$$

[A] FC(F)(F)c1c(CNC2CC2c2ccccc2)ccn2c(CC3CC3)nnc12 (centres unmarked) [Co. no. 27]
[B] CCc1nnc2c(C(F)(F)F)c(CN[C@H]3CC[C@@H](c4ccc(F)cc4F)CC3)ccn12 [Co. no. 9]
[C] FC(F)(F)c1c(CNC2CCOc3ccccc32)ccn2c(CC3CC3)nnc12 (single isomer, unassigned) [Co. no. 28b]
Order the records so the highest EC50 appears first and the lowest last. Show the ranking through the labels, in the order asked for.
A, C, B
